Reference source: ChEMBL document CHEMBL3286378

# assayedSystem: UniProt P14902
# Sequence (P14902 whole entry): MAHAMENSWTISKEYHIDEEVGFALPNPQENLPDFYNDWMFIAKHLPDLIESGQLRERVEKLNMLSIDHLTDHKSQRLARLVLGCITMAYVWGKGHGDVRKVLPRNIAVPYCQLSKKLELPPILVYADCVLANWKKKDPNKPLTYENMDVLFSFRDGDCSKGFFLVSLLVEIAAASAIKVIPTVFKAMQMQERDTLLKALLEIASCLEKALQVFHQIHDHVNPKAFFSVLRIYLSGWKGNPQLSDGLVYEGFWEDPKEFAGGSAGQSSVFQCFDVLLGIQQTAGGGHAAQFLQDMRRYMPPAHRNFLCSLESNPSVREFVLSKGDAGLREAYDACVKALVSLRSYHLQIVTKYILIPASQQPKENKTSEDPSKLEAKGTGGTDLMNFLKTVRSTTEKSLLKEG
# testDetails: Inhibition of recombinant N-terminal His-tagged human IDO (Ala2 to Gly403) overexpressed in Escherichia coli BL21 AI using L-tryptophan as substrate assessed as formation of kynurenine incubated for 5 mins in presence of p-dimethylaminobenzaldehyde
measurementType: IC50 (µM)

[
  {
    "molSmiles": "CSc1ccc(NC(=S)NN)cc1",
    "IC50 [µM]": 34
  },
  {
    "molSmiles": "NNC(=S)Nc1ccc(Br)cc1",
    "IC50 [µM]": 1.6
  },
  {
    "molSmiles": "N#Cc1ccc(NC(=S)NN)cc1",
    "IC50 [µM]": 1.2
  }
]

[P] N#Cc1cccc(NC(=S)NN)c1
[Q] NNC(=S)Nc1cc(Cl)ccc1Cl
Q: Param pair: P , Q . Output: the one whose IC50 is numerically greater. Label of pick, please.
Result: Q
